The origin of these recorded values is patent US6271342A.

Entries and their IC50 [μg/ml] CSF-induced proliferation of bone marrow parent cells of the mouse
Tested on: bone marrow parent cells of the mouse
procedure.details: CSF-induced proliferation of bone marrow parent cells, in vitro
Format: cell-based
measurement.setup: recombinant murine GM-CSF, 7 days

molecule	target.or.system	result
CO[C@H]1[C@H](O)[C@@H](Oc2ccc(NC(=S)NCCCC[C@H](NC(=S)Nc3ccc(O[C@H]4O[C@@H](C)[C@@H](O)[C@@H](OC)[C@@H]4O)cc3)C(=O)N[C@@H](C)C(=O)NC3C=CCC4CN(c5c(F)cc6c(=O)c(C(=O)O)cn(C7CC7)c6c5Cl)CC43)cc2)O[C@@H](C)[C@H]1O (stereo partly drawn) [Example 11.2]	bone marrow parent cells of the mouse	22.5 µg/mL

Consider the additional molecule presented here.
Looking up CC1OC(Oc2ccc(NC(=S)NC(CCCCN)C(=O)NC3C=CCC4CN(c5c(F)cc6c(=O)c(C(=O)[O-])cn(C7CC7)c6c5Cl)CC43)cc2)C(O)C(OCC(=O)[O-])C1O.[Na+].[Na+] (mixture of isomers) [Example 12.6] , I found its IC50 [μg/ml] CSF-induced proliferation of bone marrow parent cells of the mouse recorded as 0.3 µg/mL
